protocol description: growth inhibition of GSK3B-pretreated HCT116 cells – cell-based, CellTiter-Glo, 0.2 to 20 µM (AID 1117336)
condition context: HCT116 viability after GSK3B inhibitor, at 20 µM, active compounds read high
A collection of molecules and their measured viability decrease
Provide the reading as a plain figure in %.

The following molecules have reported results that may help.
C[C@@H]1C[C@H]2[C@@H]3CCC4=CC(=O)C=C[C@]4(C)[C@@]3(F)[C@@H](O)C[C@]2(C)[C@@]1(O)C(=O)COP(=O)(O)O ... -4.3
Cc1cccc(N(C)C(=S)Oc2ccc3ccccc3c2)c1 ... 50
O=C(CCBr)N1CCN(C(=O)CCBr)CC1 ... 56.1
Oc1cc(O)c2c(c1)O[C@H](c1ccc(O)c(O)c1)[C@H](O)C2 ... 14.4

Asked: # lookup: viability decrease of Cc1ncc([N+](=O)[O-])n1CCO
Given back: 55.6

Asked: Any idea what viability decrease was measured for C[C@H](N)[C@H](O)c1cccc(O)c1 ?
Given back: -13.4

Asked: Recorded viability decrease for CC(C)(C)C(O)/C=C/c1ccc2c(c1)OCO2 (stereo not given) , please?
Given back: -4.45

Asked: Which viability decrease is reported for this molecule? CCCCCCCCCCCCCCCCC(C(=O)O)C(O)(CC(=O)O)C(=O)O (stereo not given)
Given back: 99.8

Asked: Find the recorded viability decrease belonging to O=C(O)CN1C(=O)c2cccc3cccc(c23)C1=O and report it.
Given back: -2.7

Asked: Requested read-out: viability decrease. Entry: O=C(O)c1ccccc1O
Given back: 7.5

Asked: Name the recorded viability decrease for CCN(CC)CCNc1ccc(CO)c2sc3ccccc3c(=O)c12 .
Given back: 24.4

Asked: Please look up its viability decrease: CCOC(=O)C1=C(C)NC(C)=C(C(=O)OCC)C1c1ccccc1/C=C/C(=O)OC(C)(C)C
Given back: 117
